The measured values listed here are drawn from the nanobody polyreactivity screen of Harvey et al. (2022).

test: yeast display, Sf9 membrane polyspecificity reagent, FACS + sequencing; frameworks hold sequencing errors

chain	polyreactivity (PSR sort gate)
QVQLVESGGGLDQAGGSLRLSCAASGIIFGTNAMGWYIQAPGKESELVAAITWSGGNTTYADSVKGRFTISRDNAKNTVYLQMNSLKPEDTAVYYCAADFTRAGDYDYWGQGTQVTVSS	low polyreactivity
QVQLVESGGGLVQAGGSLRLSCAASGRIFDDYGMGWYRQAQGKESELVAGISFIAGSTYYADSVKGRFTISRDNAKNTVYLQMNSLKPEDTAVYYCAVELWYEYYYWGQGTQVTVSS	high polyreactivity
QVQLVESGGGLVQAGGSLRLSCAASGSIFYRYAMGWYSQAPGKERELVAAINNGGGRTYADSVKGRCTISRDNAKNTVYLQMNSLKPEDTAVYYCAARYYRDYRWYTYAYDYWGQGTQVNVSS	high polyreactivity
QVQLVESGGGLVQAGGSLRLSCSAYGSIFYGYAMGWYRQAPGKERELVAAITWSGGSTYYADSVKGRFTISRDIAKNTVYLQMNSLKPEDTAVYYCNALWVWYRGSSVRWVGGYDYWGQGTQVTVSS	high polyreactivity
QLQLVESGGGLVQAGGSLRLSCAASGSLFYVYAMGWYRAATGKERELVAAISDDGDTYYADSVKGRFTISRDHEKNTVYLQMNSLKPEDTEVYFCAAEGGANEENSSPEYDYWGLGTQVTVSS	low polyreactivity

###

test: yeast display, Sf9 membrane polyspecificity reagent, FACS + sequencing; frameworks hold sequencing errors
quantity: polyreactivity (PSR sort gate)

chain	quantity	reported result
QVQLVESGGGLVQAGGSLRLSCAASGSIFTPYVMGWYRQAPGKEREFVAAITQRGGRTYYADSVKGRFTISRDNAKNTVYLQMNSLKPEDTAVYYCAKTSVSRTYHRSAYDYWGQGTQVTVSS	polyreactivity (PSR sort gate)	high polyreactivity
QVQLVETGGGLVQAGGSLRLSSAASGSTFAWYAMGWYRQAPGKEREFVAAIDQDDDSTYYADSVKGRFTISRDNAKNTVYLQMKSLKPEDTAVYYCAASSPWEQSNDQFYYWGQGTQVTVSS	polyreactivity (PSR sort gate)	low polyreactivity
QVQLVESGGGLVQAGGSLRISCAASGSIFTANSMGWYRQAPGKERELVAAITWSGGSTYYADSVKGRFTISRDNAKNTVYLQMNSLKPEDPAVYYCAALPLYLGPKRLGYWGQGTQVTVSS	polyreactivity (PSR sort gate)	high polyreactivity
QVQLVESGGGLVQAGGSLRLSCAASGSIFPHNTMGWYRQAPGKERELVAAITRDGTSTYYADSVKGRFTISRDNAKNTVYLQMNSLKPEDTAVYYCAARRARSFYVTYYGVGFNYWGQGTQVTVSS	polyreactivity (PSR sort gate)	low polyreactivity
QVQLVESGGGLVQAGGSLRLSCAASGRTFRLNAMGWYRQAPGKERELVARITGSSGGSTYYADSVKGRFTISRDNAKNTVYLQMNSLKPEDTAVYYCNKRVGFLYKYDYWGQGTQVTVSS	polyreactivity (PSR sort gate)	high polyreactivity
QVQLVESGGGLVQAGGSLRLSCAASGIIFYYYAMGWYRQPPGKERELVAAISWSGDGTYYADSVKGRFTISRDNPKNTVYLQMNSLKPEDTAVYYCAALNDGFSGYDYLDEYTDYGYWGQGTQVTVSS	polyreactivity (PSR sort gate)	low polyreactivity
QVQLVESGGGLVKAGGSLRITCAASGRIFGYYPMGWYRPATGKESELVAAITRRGGITYYADSVKGRFTISRDNAKNTVYLPMNCLKPADTAVYYRAADRYWGYDYWGQGTQVTGSS	polyreactivity (PSR sort gate)	high polyreactivity
QVHLVESGGGLVQAGGSLRLSCAASGRIFGYYAMGWYRQAPGKERELVARISSSGGSTYYADSVKGRFTISRDNAKNTVYLQMNSLKPEDTAVYYCNTASNRYPGWRAEFDYWGQGTQVTVSS	polyreactivity (PSR sort gate)	low polyreactivity
QVQLHESGGGLVQAGGSLRRSCAPSGTISYAGPMGWYRQAPGKEREFVAGIGVGSNTNYADSVKGRYTIIRDNAKNTVYLQMNSLKPEDTAVYYCAVGGYAPLGRPYWGQGTQVTVSS	polyreactivity (PSR sort gate)	low polyreactivity
QVQLVESGGGLVQAGGSLRLSCAASGSIFDDYAMGWYRQAPGKERELVAAISDSGGSTSYADSVKGRFTISRDNAKNTVYFQMNSLKPEDTAVYYCNADRDDDYDYWGQGTQVTVSS	polyreactivity (PSR sort gate)	low polyreactivity
QVQLVESGGGLVQAGGSLRLSCAASGSTFYANAMGWYRQAPGKERELVAAIDSGGTTTYADSVKGRFTISRDNAKNTVYLQMNSLKPEDTAVYYCAADQYWYIWYDYWGQGTQVTVSS	polyreactivity (PSR sort gate)	low polyreactivity
